Biological target: PSME3 Proteasome activator complex subunit 3 (Homo sapiens, UniProt P61289)
Construct: isoTOP-ABPP experiments performed in cell lysates (in vitro); endogenous in cells; host or cells: soluble proteome of human cancer cell lines (MDA-MB-231, Ramos, Jurkat)
Sequence (P61289 whole entry, one chain of several): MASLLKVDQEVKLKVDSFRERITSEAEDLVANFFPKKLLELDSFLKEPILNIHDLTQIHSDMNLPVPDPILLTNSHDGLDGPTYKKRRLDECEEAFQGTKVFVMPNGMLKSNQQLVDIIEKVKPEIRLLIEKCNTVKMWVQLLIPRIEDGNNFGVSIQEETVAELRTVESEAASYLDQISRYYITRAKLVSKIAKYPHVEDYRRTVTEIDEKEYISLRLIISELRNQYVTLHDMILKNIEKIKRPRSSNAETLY
Assay: competitive isoTOP-ABPP
Assay type: binding
Conditions: P61289_K237; 50 uM, 231 sol, in vitro
endpoint-name: R value (DMSO/fragment) for probe 1 labeling

1. O=C(Oc1c(F)c(F)c(F)c(F)c1F)C(c1ccccc1)c1ccccc1 [fragment 20, Pentafluorophenyl 2,2-diphenylacetate]
2. O=C(CCc1cn(-c2ccccc2)nc1-c1ccccc1)Oc1c(F)c(F)c(F)c(F)c1F [fragment 19]
For this pair, 1 and 2 , which shows a numerically higher R value (DMSO/fragment) for probe 1 labeling? The response must carry the label of the picked entry.
1

---

Molecular target: FAH Fumarylacetoacetase (Homo sapiens)
Construct: isoTOP-ABPP experiments performed in cell lysates (in vitro); endogenous in cells; host or cells: soluble proteome of human cancer cell lines (MDA-MB-231; Ramos and Jurkat also prepared)
Sequence (P16930 whole entry): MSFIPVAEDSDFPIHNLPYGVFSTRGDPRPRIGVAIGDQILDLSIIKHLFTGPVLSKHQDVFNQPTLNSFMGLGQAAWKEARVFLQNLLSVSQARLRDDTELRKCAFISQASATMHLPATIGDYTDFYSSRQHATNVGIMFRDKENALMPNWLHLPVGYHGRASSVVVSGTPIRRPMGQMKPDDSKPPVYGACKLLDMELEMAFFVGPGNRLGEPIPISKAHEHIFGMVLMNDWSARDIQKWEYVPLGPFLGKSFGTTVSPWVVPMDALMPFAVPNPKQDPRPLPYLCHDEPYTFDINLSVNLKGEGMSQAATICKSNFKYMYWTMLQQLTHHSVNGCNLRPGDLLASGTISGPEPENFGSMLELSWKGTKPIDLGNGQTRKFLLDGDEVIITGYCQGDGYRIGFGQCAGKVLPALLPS
Assay: competitive isoTOP-ABPP
Type: binding
Conditions: 50 uM, in vitro, sol, 231
Method: In vitro covalent fragment treatment for isoTOP-ABPP. All compounds were made up as solutions in DMSO (100×) and were used at a final concentration of 50 μM for activated esters and 100 μM for guanidinylating agents. […] R value calculation and processing. The ratios of light and heavy MS1 peaks for each unique peptide were quantified with a CIMAGE software using default parameters (3 MS1 acquisitions per peak and signal to noise threshold set to 2.5). […]
endpoint-name: isoTOP-ABPP ratio (R) at liganded lysine P16930_K241
Reply with just the number.

O=C(Oc1ccc([N+](=O)[O-])cc1[N+](=O)[O-])C(c1ccccc1)(c1ccccc1)c1ccccc1 [fragment 42, 2,4-Dinitrophenyl 2,2,2-triphenylacetate]    0.9
O=C(CCc1coc2cc(F)ccc2c1=O)Oc1ccc([N+](=O)[O-])cc1[N+](=O)[O-]    3.6
O=C(Oc1ccc([N+](=O)[O-])cc1[N+](=O)[O-])c1ccc2ccccc2n1    3.4
O=C(Oc1ccc([N+](=O)[O-])cc1[N+](=O)[O-])C1CCN(C(=O)OCc2ccccc2)CC1    1.2
CC(C)(C)OC(=O)NCCCC(=O)Oc1ccc([N+](=O)[O-])cc1[N+](=O)[O-]    1.4
O=C(CC12CC3CC(CC(C3)C1)C2)Oc1ccc([N+](=O)[O-])cc1[N+](=O)[O-]    1.0
CC(=O)Oc1ccc([N+](=O)[O-])cc1[N+](=O)[O-] [fragment 43, 2,4-Dinitrophenyl acetate]    1.4
O=C(Oc1ccc([N+](=O)[O-])cc1[N+](=O)[O-])c1ccc(Oc2ccccc2)cc1 [fragment 39, 2,4-Dinitrophenyl 4-phenoxybenzoate]    1.2

Form: Entry = O=C(Oc1ccc([N+](=O)[O-])cc1[N+](=O)[O-])c1ccccc1Nc1cccc(C(F)(F)F)c1 | System = FAH Fumarylacetoacetase (Homo sapiens) | isoTOP-ABPP ratio (R) at liganded lysine P16930_K241 = ____
1.4

Request: isoTOP-ABPP ratio (R) at liganded lysine P16930_K241, test system FAH Fumarylacetoacetase (Homo sapiens), entry O=C(Oc1ccc([N+](=O)[O-])cc1[N+](=O)[O-])c1ccc(-c2ccccc2)cc1
1.0

---

Target: PLIN3 Perilipin-3 (Homo sapiens)
Construct: isoTOP-ABPP experiments performed in cell lysates (in vitro); endogenous in cells; host or cells: MDA-MB-231 soluble lysate
Sequence (O60664 whole entry): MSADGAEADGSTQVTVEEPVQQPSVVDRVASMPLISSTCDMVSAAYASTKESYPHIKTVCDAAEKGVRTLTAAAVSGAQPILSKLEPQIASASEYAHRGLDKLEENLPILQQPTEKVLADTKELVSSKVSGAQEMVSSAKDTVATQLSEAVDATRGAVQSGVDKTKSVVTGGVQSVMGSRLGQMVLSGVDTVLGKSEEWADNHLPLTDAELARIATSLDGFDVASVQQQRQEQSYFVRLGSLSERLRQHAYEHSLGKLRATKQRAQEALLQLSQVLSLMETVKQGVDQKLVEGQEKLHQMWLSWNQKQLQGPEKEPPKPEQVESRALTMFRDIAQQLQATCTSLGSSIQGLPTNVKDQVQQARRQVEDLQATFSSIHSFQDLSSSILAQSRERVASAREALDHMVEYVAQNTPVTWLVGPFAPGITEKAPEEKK
Test: competitive isoTOP-ABPP
Assay type: binding
Conditions: 50 uM, in vitro, sol, 231
Form field: isoTOP-ABPP ratio (R) at liganded lysine O60664_K257 (one value per entry).
Answer with a number only.

Before answering, review these 3 worked examples.
O=C(Oc1ccc([N+](=O)[O-])cc1[N+](=O)[O-])c1ccccc1Nc1cccc(C(F)(F)F)c1    1.6
O=C(Oc1ccc([N+](=O)[O-])cc1[N+](=O)[O-])c1ccc(Oc2ccccc2)cc1 [fragment 39, 2,4-Dinitrophenyl 4-phenoxybenzoate]    2.2
O=C(CCc1coc2cc(F)ccc2c1=O)Oc1ccc([N+](=O)[O-])cc1[N+](=O)[O-]    3.9

Fill blank: measured isoTOP-ABPP ratio (R) at liganded lysine O60664_K257 of the molecule O=C(Oc1ccc([N+](=O)[O-])cc1[N+](=O)[O-])C(c1ccccc1)(c1ccccc1)c1ccccc1 [fragment 42, 2,4-Dinitrophenyl 2,2,2-triphenylacetate] is ____.
0.9

Item under review: O=C(Oc1ccc([N+](=O)[O-])cc1[N+](=O)[O-])c1ccc2ccccc2n1 . Reported isoTOP-ABPP ratio (R) at liganded lysine O60664_K257?
1.2

// isoTOP-ABPP ratio (R) at liganded lysine O60664_K257 lookup, key: O=C(Oc1ccc([N+](=O)[O-])cc1[N+](=O)[O-])c1ccc(-c2ccccc2)cc1
3.5
